tested on: Escherichia coli; assay: Antibacterial activity against Escherichia coli ATCC 25922 (CO-ADD:GN_001); MIC in CAMBH media using NBS plates, by Resazurin F(560/590); format: functional; settings: Concentration 20 uM, ASSAY_TEST Inhibition of Bacterial Growth, detection method Resazurin, Fluorescence (ex560/em590), MEDIA CAMHB, plate type 384well, CORNING #3640, time 18 hr
Assign Inhibition to each entry below.
Answers are plain numbers, in %.

molecule	study.system	Inhibition / %
O=C(O)Cc1sc(O)nc1O	Escherichia coli	1.48
CCOC(=O)c1nc(SC)n(C)c1C(=O)OCC	Escherichia coli	18.32
CCSc1nc(C)c(C)c(O)n1	Escherichia coli	10.67

Go through the items and report each one's Inhibition.
1. COC(=NC(C)C)NC(C)C
2. CN(C)c1ccc(C(c2ccc(N(C)C)cc2)c2ccc([N+](=O)[O-])cc2)cc1
3. CSc1ccc(NC(=O)Nc2cc(C)ccn2)cc1
4. NS(=O)(=O)c1ccc(Nc2ccccc2)c([N+](=O)[O-])c1

Response given:
[15.21, -1.1, 9.5, -4.87]

Go through the items and report each one's Inhibition.
1. CC1(c2ccc3ccccc3c2)CCC(=O)O1 (stereo unspecified)
2. Oc1ccc(Nc2ccnc3cc(Cl)ccc23)cc1
3. O=C(O)c1cnn2c(S)ncnc12
4. COc1cc(-c2ccc(NC(=O)NC3CC3)c(OC)c2)ccc1NC(=O)NC1CC1

Response given:
[7.71, -4.01, 9.48, 13.19]

###

tested on: Acinetobacter baumannii; assay: Antibacterial activity against Acinetobacter baumannii ATCC 19606 (CO-ADD:GN_034); MIC in CAMBH media using NBS plates, by Resazurin F(560/590); type: functional; details: Concentration 20 uM, ASSAY_TEST Inhibition of Bacterial Growth, detection method Resazurin, Fluorescence (ex560/em590), MEDIA CAMHB, plate type 384well, CORNING #3640, time 18 hr
Assign Inhibition to each entry below.
Answers are plain numbers, in %.

Some compounds with known Inhibition results, for comparison:
compound	Inhibition / %
Cc1cc(C)n(C(=N)NC(=O)c2ccccc2)n1	6.54
O=C(Nc1cccc([N+](=O)[O-])c1)c1cc2ccccc2cc1O	-9.44
CCCCSc1cc(C)nc(N)n1	-7.66
COc1ccc(OC)c(NC(=O)c2cc3oc4ccccc4c3cc2O)c1	8.19
CN1N=C(N)c2cn(C3OC(COP(=O)(O)O)C(O)C3O)c3ncnc1c23 (stereo not given)	8.14
COc1ccc(NC2=CC(=S)NC(C)(C)C2)cc1	-15.84
COC1OC(O)C(NC(=O)C(F)(F)F)CC1O (stereo not given)	9.13
Clc1[nH]cnc2nccc1-2	-14.17

Go through the items and report each one's Inhibition.
1. CC(=O)NCC(O)c1ccc([N+](=O)[O-])cc1 (stereo not given)
2. O=[N+]([O-])c1cc2cccnc2c2ncccc12

Response given:
1. -9
2. -9.82

Go through the items and report each one's Inhibition.
1. Clc1ccc(-c2c(C3=NCCCN3)nnn2-c2ccc(Cl)cc2)cc1
2. C1COCCN1.O=C(O)C(C=C(Cl)Cl)N1CCOCC1 (stereo not given)
3. CC(=O)NCCCOc1ccc([N+](=O)[O-])cc1Cl
4. NC(=O)c1ccccc1OCC(=O)Nc1ccc(Cl)c(Cl)c1
5. CC(C)NCC1CCc2cc(CO)c([N+](=O)[O-])cc2N1 (stereo not given)
6. C#CCCOC(=O)Nc1ccccc1
7. COc1ccc(OCC(O)CN2CCN(c3ccc(Cl)cc3)CC2)cc1 (stereo not given)
8. CCn1c(=O)n(C)c2c(=O)n(C)c(=O)n(C)c21

Response given:
1. -3.66
2. -4.57
3. -1.89
4. -16.17
5. -13.41
6. -10.74
7. 8.48
8. -10.53

###

Assign Inhibition to each entry below.
test system: Escherichia coli; test: Antibacterial activity against Escherichia coli ATCC 25922 (CO-ADD:GN_001); MIC in CAMBH media using NBS plates, by Resazurin F(560/590); assay type: functional; conditions: Concentration 20 uM, ASSAY_TEST Inhibition of Bacterial Growth, detection method Resazurin, Fluorescence (ex560/em590), MEDIA CAMHB, plate type 384well, CORNING #3640, time 18 hr
Answers are plain numbers, in %.

Some compounds with known Inhibition results, for comparison:
compound	quantitative.result
Cc1cc(O)c2c(C)ccc(C)c2n1	3.82
O=[N+]([O-])c1cc2cccnc2c2ncccc12	9.62
C1=CC2(C=C1)OC21CCC2(C=CC3(C2)OC3C2CCCCC2)CC1 (stereo not drawn)	4.97

Go through the items and report each one's Inhibition.
1. CC12C(=O)N(c3nccs3)C(=O)C1(C)C1CCC2O1 (stereo not drawn)
2. O=C(O)CCC(=O)c1ccc2ccc3cccc4ccc1c2c34

Response given:
1: 7.81; 2: -8.48

###

tested on: Klebsiella pneumoniae; details: Concentration 20 uM; ASSAY_TEST Inhibition of Bacterial Growth; detection method Absorption (OD600); MEDIA CAMHB; plate type 384well; NBS; CORNING #3640; time 18 hr
Description: Antibacterial activity against Klebsiella pneumoniae MDR ATCC 70063 (CO-ADD:GN_003); MIC in CAMBH media using NBS plates, by OD(600)
Entries with a potency or affinity are not part of this list.
Assign Inhibition to each entry below.
Give bare numbers, in %.

molecule	assay.metric	quantitative.result
COc1ccc(OC)c(NC(=O)c2cc3oc4ccccc4c3cc2O)c1	Inhibition	9.42
O=[N+]([O-])c1ccccc1/C=C/C=N/N=C/c1ccccc1O	Inhibition	2.2
O=c1cc(-c2cccnc2)oc2c1ccc1ccccc12	Inhibition	-1.55
CC(O)c1nc2c(c(=O)n(C)c(=O)n2C)n1C (stereo unspecified)	Inhibition	7.56
Nc1ncnc2c1ncn2C1C=C(CO)C(O)C1O (stereo unspecified)	Inhibition	9.87

Now for a further molecule.
Challenge: Entry O=C(/C=C/c1ccccc1Cl)c1ccc(O)cc1 needs its Inhibition filled in; supply it.
Response given: 19.85

###

test system: Cryptococcus neoformans; details: Concentration 20 uM; ASSAY_TEST Inhibition of Fungal Growth; detection method Resazurin; Absorption (OD600-OD570); plate type 384well; NBS; CORNING #3640
Description: Antifungal activity against Cryptococcus neoformans H99 ATCC 208821 (CO-ADD:FG_002); MIC in YNB media using NBS plates, by Resazurin OD(600-570)
Entries with a potency or affinity are not part of this list.
Assign Inhibition to each entry below.
One number for each entry, in %.

Some molecules with known Inhibition results, for comparison:
molecule	Inhibition / %
O=C(O)/C=C\c1cc2c(cc1[N+](=O)[O-])OCO2	-6.94
CCCCNc1cc(Cl)nc(N)n1	-8.27
Cc1nc([C@H]2CC[C@H]3[C@@H]4CCC5=CC(=O)CC[C@]5(C)[C@H]4CC[C@]23C)cs1	-7.32
Nc1ccnn1-c1ccccc1	-2.01
Cc1nc(N)nc(Cl)c1CCC1OCCO1	-6.74

Go through the items and report each one's Inhibition.
1. O=C(c1ccccc1)C1C(c2ccccc2)C1[N+](=O)[O-] (stereo unspecified)
2. Cc1cc(O)c2c(O)[nH]nc2n1
3. O=C(O)/C=C/C(=O)N1Cc2cc3ccccc3nc2C1
4. C(=N\N=c1/nnn(Cc2ccccc2)[nH]1)/c1ccccc1

Response given:
-2.68
-5
-3.38
-8.48

Go through the items and report each one's Inhibition.
1. CC(C)(c1cc(Cl)c(O)c(CN2CCOCC2)c1)c1cc(Cl)c(O)c(CN2CCOCC2)c1
2. N=C(N)NC(=N)Nc1ccc(O)cc1
3. c1ccc(CSc2nnc3c4ccccc4c4ccccc4c3n2)cc1
4. N#CC1C(=O)NC(=O)C(C#N)C12CCCC(C(F)(F)F)C2 (stereo unspecified)
5. CCOC(=O)c1c(C)c(C(=O)OCC)n(C)c1C
6. Cc1ccc(NC(=O)Nc2ccccc2C(N)=O)cc1
7. COc1cc2c(c(OC)c1O)C(=O)CO2

Response given:
[-0.13, -11.16, -12.52, -0.69, 10.56, -13.76, -3.51]

###

tested on: Staphylococcus aureus; assay: Antibacterial activity against Staphylococcus aureus MRSA ATCC 43300 (CO-ADD:GP_020); MIC in CAMBH media using NBS plates, by Resazurin F(560/590); type: functional; details: Concentration 20 uM, ASSAY_TEST Inhibition of Bacterial Growth, detection method Resazurin, Fluorescence (ex560/em590), MEDIA CAMHB, plate type 384well, CORNING #3640, time 18 hr
assay.metric: Inhibition (%)
Give bare numbers, in %.

Some compounds with known Inhibition results, for comparison:
compound	Inhibition / %
c1ccc2c(c1)-c1cccc3cncc-2c13	1.08
CSc1cccc(NC(=O)N2CCN(C)CC2)c1	0.63
COc1cc2c(c3c1c(=O)c1cccc(F)c1n3C)C=CC(C)(C)O2	18.94

Go through the items and report each one's Inhibition.
1. Cc1csc(/N=N/c2ccc(N(C)C)cc2)[n+]1[O-]
2. COc1cc2c(cc1OC)C(=O)Cc1ccc3c(c1CN(C)CC2)OCO3

Response given:
[7.37, 7.05]

Go through the items and report each one's Inhibition.
1. Clc1ccc(-c2[nH]nc3c2Cc2ccccc2-3)cc1Cl
2. Cc1nc2nc(C(F)(F)F)[nH]c2nc1C
3. CC(=O)Nc1ccc(S(=O)(=O)N/N=c2/sc3ccccc3n2C)cc1N
4. Nc1nc(SCc2ccccn2)c2ncn(C3OC(CO)C(O)C3O)c2n1 (stereo unspecified)
5. O=C1OC(CN(Cc2ccccc2)Cc2ccccc2)CN1/N=C/c1ccc([N+](=O)[O-])o1 (stereo unspecified)
6. COc1ccc2nc3cc(Cl)ccc3c(C#N)c2c1

Response given:
1: -2.87; 2: 10.93; 3: 12.5; 4: 6.83; 5: -19.95; 6: 10.22
